target.entity: human Yes1 enzyme (Homo sapiens, UniProt P07947)
Construct: made in house
Sequence (P07947 whole entry): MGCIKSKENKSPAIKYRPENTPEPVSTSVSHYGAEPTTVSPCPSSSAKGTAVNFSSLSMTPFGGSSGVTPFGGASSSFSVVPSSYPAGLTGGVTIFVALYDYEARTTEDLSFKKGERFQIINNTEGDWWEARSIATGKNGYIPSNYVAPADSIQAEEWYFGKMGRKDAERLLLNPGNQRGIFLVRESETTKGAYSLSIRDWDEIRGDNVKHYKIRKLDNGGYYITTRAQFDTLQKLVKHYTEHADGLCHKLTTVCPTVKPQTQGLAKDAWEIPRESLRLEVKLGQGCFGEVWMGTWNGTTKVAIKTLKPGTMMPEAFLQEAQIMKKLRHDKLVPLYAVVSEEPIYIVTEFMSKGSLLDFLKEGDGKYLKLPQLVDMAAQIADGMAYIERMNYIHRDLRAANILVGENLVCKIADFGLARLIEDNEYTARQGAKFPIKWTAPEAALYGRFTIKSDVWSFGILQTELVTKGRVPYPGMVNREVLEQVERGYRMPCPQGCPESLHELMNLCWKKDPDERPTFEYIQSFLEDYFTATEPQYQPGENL
method.description: Yes1 enzyme inhibitory activity (time-resolved fluorometry, biotinylated peptide phosphorylation)
Type: biochemical
assay.setup: biotinylated peptide phosphorylation, read-out: YES_IC50
# maps each entry to its pIC50
Entry type: numeric. Quantity: pIC50, the -log10 of concentration in molar units.

Cc1cc(Oc2cccc(F)c2F)ccc1-n1ncc(C(=O)c2cc3cc(NS(C)(=O)=O)c(F)cc3[nH]2)c1N [Example 4-2-098]; 9.41
Cc1cc(Oc2ccccc2F)cc(F)c1-n1ncc(C(=O)c2cc3cc(OC(F)F)c(NC4CCN(S(C)(=O)=O)CC4)cc3[nH]2)c1N [Example 4-23-012]; 7.85

Next molecule, pIC50 to be filled in.
Need pIC50 of COc1cc2cc(C(=O)c3cnn(-c4c(C)cc(Oc5ccccc5F)cc4F)c3N)[nH]c2cc1N1CCCS1(=O)=O [Example 4-2-120] , thanks.
9.00

* * *

target.entity: human Src enzyme (Homo sapiens)
Construct: purchased Carna Biosciences, Inc. 08-173
Sequence (P12931 whole entry): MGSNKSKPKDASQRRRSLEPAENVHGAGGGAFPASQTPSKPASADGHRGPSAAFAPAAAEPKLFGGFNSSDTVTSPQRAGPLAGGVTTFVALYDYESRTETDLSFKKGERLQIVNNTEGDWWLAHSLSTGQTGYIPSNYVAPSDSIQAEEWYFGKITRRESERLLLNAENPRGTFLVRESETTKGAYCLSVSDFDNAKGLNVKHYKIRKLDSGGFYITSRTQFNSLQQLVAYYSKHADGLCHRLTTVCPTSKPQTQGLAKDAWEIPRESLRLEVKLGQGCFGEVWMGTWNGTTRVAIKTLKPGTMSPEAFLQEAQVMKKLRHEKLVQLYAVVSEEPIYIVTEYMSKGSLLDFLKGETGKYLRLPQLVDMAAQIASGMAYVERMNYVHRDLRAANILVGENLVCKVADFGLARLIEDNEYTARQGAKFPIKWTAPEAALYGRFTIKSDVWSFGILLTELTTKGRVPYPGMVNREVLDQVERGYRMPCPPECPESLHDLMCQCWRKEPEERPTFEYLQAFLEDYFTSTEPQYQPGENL
method.description: Src enzyme inhibitory activity (time-resolved fluorometry, biotinylated peptide phosphorylation)
Assay type: biochemical
assay.setup: read-out: SRC_IC50
# maps each entry to its IC50
Could you give me the number in µM? Just the number is fine.

CS(=O)(=O)Nc1cc2[nH]c(C(=O)c3cnn(-c4ccc(Oc5ccccc5F)cc4Cl)c3N)cc2cc1F; 0.11
CC(C)N1CCC(c2cc3[nH]c(C(=O)c4cnn(-c5ccc(Oc6ccccc6Cl)cc5)c4N)cc3cc2F)CC1; 0.023
Cc1cc(Oc2ccccc2F)ccc1-n1ncc(C(=O)c2cc3cc(OCC(F)F)c(N4C(=O)[C@@H]5C[C@H](NC(=O)OCC(C)C)CN5C4=O)cc3[nH]2)c1N; 0.045
CC(C)N1CCC(c2cc3[nH]c(C(=O)c4cnn(-c5ccc(Oc6cccc(F)c6F)cc5)c4N)cc3cc2F)CC1; 0.03
Cc1cc(Oc2ccccc2F)ccc1-n1ncc(C(=O)c2cc3cc(C(C)C)c(NS(=O)(=O)CCCF)cc3[nH]2)c1N; 0.08
Cc1cc(-n2ncc(C(=O)c3cc4cc(OC5CCN(C(C)C)CC5)c(N5C(=O)N[C@@H](CO)C5=O)cc4[nH]3)c2N)ccc1Oc1ccccc1F; 0.44
Cc1cc(Oc2c(F)cccc2F)ncc1-n1ncc(C(=O)c2cc3cc(OCC(F)F)c(N4C(=O)NC5(CCN(Cc6ccccc6)C5)C4=O)cc3[nH]2)c1N (stereo not drawn); 0.013
Cc1cc(-n2ncc(C(=O)c3cc4cc(OC(F)F)c(N5CCN(S(C)(=O)=O)CC5)cc4[nH]3)c2N)ccc1Oc1ccccc1F; 0.35

Next molecule, IC50 to be filled in.
Checklist item: IC50 tested on human Src enzyme (Homo sapiens), entry Cc1cc(Oc2c(F)cccc2F)ncc1-n1ncc(C(=O)c2cc3cc(C(C)C)c(NS(=O)(=O)C4CCCCC4)cc3[nH]2)c1N , value?
1.3

* * *

target.entity: human Lck enzyme (Homo sapiens)
Construct: purchased Carna Biosciences, Inc. 08-170
Sequence (P06239 whole entry): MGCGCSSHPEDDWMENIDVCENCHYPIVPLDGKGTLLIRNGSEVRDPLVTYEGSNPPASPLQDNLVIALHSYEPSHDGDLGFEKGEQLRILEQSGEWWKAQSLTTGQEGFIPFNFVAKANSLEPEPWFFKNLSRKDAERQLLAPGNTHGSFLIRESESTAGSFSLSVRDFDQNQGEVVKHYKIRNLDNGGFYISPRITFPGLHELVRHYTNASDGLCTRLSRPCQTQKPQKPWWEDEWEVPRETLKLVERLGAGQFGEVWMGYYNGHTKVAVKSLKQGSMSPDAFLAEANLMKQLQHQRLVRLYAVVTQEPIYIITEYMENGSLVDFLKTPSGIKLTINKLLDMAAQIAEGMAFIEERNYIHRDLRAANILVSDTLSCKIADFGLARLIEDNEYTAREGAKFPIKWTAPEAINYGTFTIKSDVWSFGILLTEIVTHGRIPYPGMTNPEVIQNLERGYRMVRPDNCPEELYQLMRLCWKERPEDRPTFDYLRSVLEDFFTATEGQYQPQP
method.description: Lck enzyme inhibitory activity (time-resolved fluorometry, biotinylated peptide phosphorylation)
Type: biochemical
assay.setup: biotinylated peptide phosphorylation, read-out: LCK_IC50
readout.kind: IC50 (nM)
Could you give me the number in nM? Just the number is fine.

Sample answers from the record:
Cc1cc(-n2ncc(C(=O)c3cc4cc(F)c(C5CCN(C(C)C)CC5)cc4[nH]3)c2N)ccc1Oc1ccccc1F; 62
CC(C)N1CCC(c2cc3cc(C(=O)c4cnn(-c5ccc(Oc6ccccc6Cl)cc5F)c4N)[nH]c3cc2F)CC1; 2.5
Cc1cc(Oc2ccccc2F)ncc1-n1ncc(C(=O)c2cc3cc(OCC(F)F)c(N4CCN(S(C)(=O)=O)CC4)cc3[nH]2)c1N; 5.5
Cc1cc(Oc2ccccc2F)ccc1-n1ncc(C(=O)c2cc3cc(F)c(NS(=O)(=O)c4c(F)cc(F)cc4F)cc3[nH]2)c1N; 340
Cc1cc(Oc2ccccc2F)ncc1-n1ncc(C(=O)c2cc3cc(N4CCOCC4)c(N4CCCS4(=O)=O)cc3[nH]2)c1N; 5.2

Checklist item: IC50 tested on human Lck enzyme (Homo sapiens), entry Cc1cc(Oc2c(F)cccc2F)ncc1-n1ncc(C(=O)c2cc3cc(N4CCOCC4)c(NS(=O)(=O)CCCF)cc3[nH]2)c1N , value?
62

Checklist item: IC50 tested on human Lck enzyme (Homo sapiens), entry COc1cccc(S(=O)(=O)Nc2cc3[nH]c(C(=O)c4cnn(-c5ccc(Oc6ccccc6F)cc5C)c4N)cc3cc2OCC(F)F)c1 , value?
110

Checklist item: IC50 tested on human Lck enzyme (Homo sapiens), entry Cc1cc(Oc2ccccc2F)ccc1-n1ncc(C(=O)c2cc3cc(F)c(N4C(=O)NC5(CCCC5)C4=O)cc3[nH]2)c1N , value?
15

Checklist item: IC50 tested on human Lck enzyme (Homo sapiens), entry Cc1cc2cc(C(=O)c3cnn(-c4cnc(Oc5ccccc5F)cc4C)c3N)[nH]c2cc1NS(=O)(=O)c1cc(C#N)ccn1 , value?
77

Checklist item: IC50 tested on human Lck enzyme (Homo sapiens), entry Cc1cnc(F)c(S(=O)(=O)Nc2cc3[nH]c(C(=O)c4cnn(-c5cnc(Oc6ccccc6F)cc5C)c4N)cc3cc2F)c1 , value?
210

Checklist item: IC50 tested on human Lck enzyme (Homo sapiens), entry Cc1cc(Oc2ccccc2F)ncc1-n1ncc(C(=O)c2cc3cc(OC(F)F)c(NC4COC4)cc3[nH]2)c1N , value?
4.6

Checklist item: IC50 tested on human Lck enzyme (Homo sapiens), entry Cc1cc(Oc2ccccc2F)cc(F)c1-n1ncc(C(=O)c2cc3cc(NS(C)(=O)=O)c(Cl)cc3[nH]2)c1N , value?
5.7

Checklist item: IC50 tested on human Lck enzyme (Homo sapiens), entry Cc1ccccc1Oc1cc(C)c(-n2ncc(C(=O)c3cc4cc(F)c(NS(C)(=O)=O)cc4[nH]3)c2N)cn1 , value?
21

Checklist item: IC50 tested on human Lck enzyme (Homo sapiens), entry Cc1ccccc1Oc1cc(C)c(-n2ncc(C(=O)c3cc4cc(F)c(NS(=O)(=O)C5CC5)cc4[nH]3)c2N)cn1 , value?
64

Checklist item: IC50 tested on human Lck enzyme (Homo sapiens), entry Cc1cc2cc(C(=O)c3cnn(-c4cnc(Oc5c(F)cccc5F)cc4C)c3N)[nH]c2cc1NS(=O)(=O)CC(=O)N1CCOCC1 , value?
7.1

Checklist item: IC50 tested on human Lck enzyme (Homo sapiens), entry Cc1cc(Oc2ccccc2F)ccc1-n1ncc(C(=O)c2cc3cc(OC(F)F)c(N4C(=O)NC(C)(C)C4=O)cc3[nH]2)c1N , value?
7
